System: Schistosoma mansoni schistosomula (NMRI);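 further: visual microscopic scoring of shape, motility and density changes versus 0.5% DMSO solvent controls, one point per descriptor, degeneracy or death scored 4, mean of duplicate wells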
assay comment: phenotypic severity score (0-4); higher = more antischistosomal effect, active = 2 or more
measurement parameters: 48 h; 10 µM
compounds and their reported phenotypic severity score
measurement type: phenotypic severity score

> print(dat)
                                    compound  value.measured
 1  CC(C)(C)c1ccc(N[C@@H]2CCCC[C@H]2NC(=O)c2ccco2)cc1               0
 2  Nc1ccc2ncnc(Nc3ccc(OCc4cccc(F)c4)c(Cl)c3)c2c1               4
 3        CCCCc1ccc(C(=O)Nc2nccc3ccccc23)nc1               0
 4  C[C@]1(O)C[C@@H](c2nc(-c3ccc4ccc(-c5ccccc5)nc4c3)c3c(N)nccn32)C1               0
 5       Cc1cc(Nc2ccc(C(F)(F)F)cc2)n2ccnc2n1               0
 6  COc1ccc(-c2nnc3ccc(-c4cccc(C(C)C)c4)cn23)cc1OC               2
 7    CCCn1c(NC(=O)c2ccc3ccccc3n2)nc2ccccc21               0
 8    OCCc1ccc(Nc2nccc(-c3nnc4ccccn34)n2)cc1               1
 9  CC(C)(CN)c1nc(-c2ccc(Cl)c(O)c2)c(-c2ccnc(N)n2)[nH]1               0
10    Cc1ccc2nc(C)c(-c3ccn(Cc4ccccc4)n3)n2c1               4
11  COc1ccc(-c2cncc3ccc(C(=O)NCCCn4ccnc4)nc23)cc1               0
12  Cc1cc(C)n(-c2ccc(NC(=O)C3CCN(Cc4cnc(C)s4)CC3)cc2)n1               0
13  CCOc1ccc2cc(-c3nn(C(C)(C)C)c(N)c3C(N)=O)cnc2c1               0
14  O=C(C1CCCCC1)N1CC(=O)N2CCc3ccccc3C2C1 (centres undefined)               4
15  CCC(Sc1nc2ccccc2o1)C(=O)Nc1nnc(C)s1 (centres undefined)               0
16  O=C1Nc2ccc(Br)cc2C12NCCc1c2[nH]c2ccccc12 (centres undefined)               0
17               CS(=O)(=O)Cc1nc2ccccc2oc1=O               0
18  CCOc1ccccc1C(=O)Nc1cccc(-c2nc3ncccn3c2C)c1               0
19                CC[C@H](CO)NCCN[C@H](CC)CO               0
